- Study target: T1, HCV NS5 (NS5 2221) peptide on HLA-A*02:01 (human)
- T1 peptide: SPDADLIEANL
- Test details: cytokine release

Binder	binding result
I4G7 alpha chain with I4G7 beta chain2 (TCR, V domains shown) Valpha: AQSVTQPDARVTVSEGASLQLRCKYSYFGTPYLFWYVQYPRQGLQLLLKYYPGDPVVQGVNGFEAEFSKSNSSFHLRKASVHWSDWAVYFCAVSRDTNTGKLTFGDGTVLTVKP Vbeta: EAAVTQSPRNKVTVTGGNVTLSCRQTNSHNYMYWYRQDTGHGLRLIHYSYGAGNLRIGDVPDGYKATRTTQEDFFLLLELASPSQTSLYFCASSDYRDSGNTLYFGEGSRLIVV	no recognition
I8H4 (TCR, V domains shown) Valpha: AQKVTQTQTSISVVEKTTVTMDCVYETRDSSYFLFWYKQTASGEIVFLIRQDSYKKENATVGHYSLNFQKPKSSIGLIITATQIEDSAVYFCAMREITGNTGKLIFGLGTTLQVQP Vbeta: EAAVTQSPRNKVTVTGGNVTLSCRQTNSHNYMYWYRQDTGHGLRLIHYSYGAGNLRIGDVPDGYKATRTTQEDFFLLLELASPSQTSLYFCASSDALGGEDAEQFFGPGTRLTVL	no recognition
I8A4 (TCR, V domains shown) Valpha: LAKTTQPPSMEAYEGQEVNVSCSHTNIATSEYIYWYRQVPHQGPQFIIQGYKDYVVNEVASLFISADRKLSTLSLPWVSLRDAAVYYCIVTDMETGGYKVVFGSGTRLLVSP Vbeta: EAAVTQSPRNKVAVTGGKVTLSCNQTNNHNNMYWYRQDTGHGLRLIHYSYGAGSTEKGDIPDGYKASRPSQENFSLILELATPSQTSVYFCASASTGASSYEQYFGPGTRLTVL	no recognition
